experimental system: Human recombinant TACE enzyme (Homo sapiens, UniProt P78536)
Construct: purchased R and D Systems, Abingdon, UK 930-ADB
Sequence (P78536 215-671 limits assumed): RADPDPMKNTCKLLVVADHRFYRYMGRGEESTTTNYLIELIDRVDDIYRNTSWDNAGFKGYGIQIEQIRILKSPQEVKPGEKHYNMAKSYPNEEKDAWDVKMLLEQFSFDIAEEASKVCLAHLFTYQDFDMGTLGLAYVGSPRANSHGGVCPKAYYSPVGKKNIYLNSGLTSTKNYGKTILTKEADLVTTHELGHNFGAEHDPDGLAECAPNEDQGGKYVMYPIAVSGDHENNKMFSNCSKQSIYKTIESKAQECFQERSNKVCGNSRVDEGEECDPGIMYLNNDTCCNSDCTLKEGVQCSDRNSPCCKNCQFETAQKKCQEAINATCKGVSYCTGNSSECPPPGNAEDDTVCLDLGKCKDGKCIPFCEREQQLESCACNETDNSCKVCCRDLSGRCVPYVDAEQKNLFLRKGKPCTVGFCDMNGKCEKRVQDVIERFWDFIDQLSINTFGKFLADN
method description: TACE assay (fluorescent peptide substrate)
Assay type: biochemical
condition description: 3.5 h; single concentration @100 (μM); read-out: Av. TACE Inhibition, % @100
measured property: inhibition at 100 µM (%)
Supply the numeric figure in %, leaving out any unit text.

Some solved entries appear below for comparison.
- compound: "O=C(O)CC1c2ccccc2S(=O)(=O)N1c1ccccc1 (centres unmarked)"
  experimental system: "Human recombinant TACE enzyme (Homo sapiens, UniProt P78536)"
  observed value: 9
- compound: "CN1C(CC(=O)NO)c2ccccc2S1(=O)=O (centres unmarked)"
  experimental system: "Human recombinant TACE enzyme (Homo sapiens, UniProt P78536)"
  observed value: 28
- compound: "CSc1cccc(N2C(CC(=O)NO)c3ccccc3S2(=O)=O)c1 (centres unmarked)"
  experimental system: "Human recombinant TACE enzyme (Homo sapiens, UniProt P78536)"
  observed value: 93

Which value of inhibition at 100 µM has been reported for CN(C)CCOc1ccc(N2C(CC(=O)NO)c3ccccc3S2(=O)=O)cc1 (centres unmarked) in the records?
81

Look up inhibition at 100 µM for this compound: O=C(CC1c2ccccc2S(=O)(=O)N1c1cccc(OC(F)(F)F)c1)NO (centres unmarked)
54

====

inhibition at 100 µM overview
experimental system: Human recombinant TACE enzyme (Homo sapiens)
Construct: purchased R and D Systems, Abingdon, UK 930-ADB
method description: TACE assay (fluorescent peptide substrate)
Assay type: biochemical
condition description: 3.5 h; single concentration @100 (μM); read-out: Av. TACE Inhibition, % @100
Kindly answer with a numeric value in %, unit omitted.

- compound: "O=C(CC1c2ccccc2S(=O)(=O)N1c1ccc(-n2cncn2)cc1)NO (centres unmarked) [IX-030]"
  inhibition at 100 µM, %: 54
- compound: "O=C(CC1c2ccccc2S(=O)(=O)N1c1cccc(C(F)(F)F)c1)NO (centres unmarked) [IX-014]"
  inhibition at 100 µM, %: 81
- compound: "O=C(CC1NS(=O)(=O)c2ccccc21)NO (centres unmarked) [IX-039]"
  inhibition at 100 µM, %: 28
- compound: "CC#CCOc1ccc(N2C(CC(=O)O)c3ccccc3S2(=O)=O)cc1 (centres unmarked) [IX-100]"
  inhibition at 100 µM, %: 50

Consider the additional compound presented here.
# get_value(readout='inhibition at 100 µM', item= COc1ccccc1N1C(CC(=O)NO)c2ccccc2S1(=O)=O (centres unmarked) [IX-008] )
50
